# assay.conditions: 333.15 K; 101.33 kPa; Liquid; Vibrating tube method
result.type: mass density (kg/m3)
The reply should be a number in kg/m3, with the unit left off.

Solved cases (3 shown):
[[record]]
compound = "COS(=O)(=O)[O-].C[n+]1ccccc1 [1-methylpyridinium methylsulfate]"
test_value = 1321.38

[[record]]
compound = "CCOS(=O)(=O)[O-].CCc1cccc[n+]1CC [1,2-diethylpyridinium ethylsulfate]"
test_value = 1196.8

[[record]]
compound = "CCc1cccc[n+]1C.COS(=O)(=O)[O-] [2-ethyl-1-methylpyridinium methyl sulfate]"
test_value = 1261.3


Q: Can you share its mass density? I mean this compound: COS(=O)(=O)[O-].Cc1ccc[n+](C)c1 [1,3-dimethylpyridinium methyl sulfate]
Ans: 1279.11

---

# assay.conditions: 308.15 K; 101.33 kPa; Liquid; Vibrating tube method
Numbers after ± are expanded uncertainties.
Reported mass density is given for each of the following compounds.
Number plus unit, in that order.

Answered cases to consult:
[[record]]
compound = "CCc1cccc[n+]1C.COS(=O)(=O)[O-] [2-ethyl-1-methylpyridinium methyl sulfate]"
test_value = "1277.9 ± 1.5 kg/m3"

[[record]]
compound = "COS(=O)(=O)[O-].Cc1ccc[n+](C)c1 [1,3-dimethylpyridinium methyl sulfate]"
test_value = "1295.77 ± 1.5 kg/m3"

[[record]]
compound = "CCOS(=O)(=O)[O-].CCc1cccc[n+]1CC [1,2-diethylpyridinium ethylsulfate]"
test_value = "1213.9 ± 1.3 kg/m3"


Now look at this entry.
Q: Which value of mass density has been reported for COS(=O)(=O)[O-].C[n+]1ccccc1 [1-methylpyridinium methylsulfate] in the records?
Ans: 1338.07 ± 1.6 kg/m3

---

Parameter: viscosity. Scope: all listed entries.
# assay.conditions: 333.15 K; 101.33 kPa; Liquid; Capillary tube (Ostwald / Ubbelohde) method
All answers are understood in mPa·s, so give the number only.

[[record]]
compound = "CCOS(=O)(=O)[O-].CCc1cccc[n+]1CC [1,2-diethylpyridinium ethylsulfate]"
units_text = "mPa·s"
test_value = 55

[[record]]
compound = "COS(=O)(=O)[O-].C[n+]1ccccc1 [1-methylpyridinium methylsulfate]"
units_text = "mPa·s"
test_value = 30.22

[[record]]
compound = "COS(=O)(=O)[O-].Cc1ccc[n+](C)c1 [1,3-dimethylpyridinium methyl sulfate]"
units_text = "mPa·s"
test_value = 28.8


Q: Could you share which viscosity value was measured for CCc1cccc[n+]1C.COS(=O)(=O)[O-] [2-ethyl-1-methylpyridinium methyl sulfate] ?
Ans: 646

---

# assay.conditions: 333.15 K; 101.33 kPa; Liquid; Sing-around technique in a fixed-path interferometer
result.type: speed of sound (m/s)
Number in m/s, nothing else.

[[record]]
molecule = "CCOS(=O)(=O)[O-].CCc1cccc[n+]1CC [1,2-diethylpyridinium ethylsulfate]"
units_text = "m/s"
test_value = 1656.2


Q: Using the record for COS(=O)(=O)[O-].C[n+]1ccccc1 [1-methylpyridinium methylsulfate] , report its speed of sound.
Ans: 1795.2

Q: Could you tell me which speed of sound is on file for COS(=O)(=O)[O-].Cc1ccc[n+](C)c1 [1,3-dimethylpyridinium methyl sulfate] ?
Ans: 1738.4

Q: Report speed of sound for CCc1cccc[n+]1C.COS(=O)(=O)[O-] [2-ethyl-1-methylpyridinium methyl sulfate] please.
Ans: 1770.2
